# Tested on: HFF cells
# ASSAY_REMARKS: Neutral-red uptake assay for toxicity
# CONDITION_CONTEXT: Table 4, neutral-red uptake, 7 days

- COMPOUND: "CCCCCCCCCCCCCCCCOCCCOP(=O)(O)CO[C@H](CO)Cn1cnc2c(N)ncnc21 [HDP-(S)-HPMPA, reference compound]"
  BOUND_OPERATOR: "="
  CC50 / µM: 31.8
- COMPOUND: "CC(C)CCCCCCCCCCCCCCCCOCCOP(=O)(O)CO[C@H](CO)Cn1cnc2c(N)ncnc21 [17M-ODE-(S)-HPMPA, 2-(17-methyloctadecyloxy)ethyl (S)-HPMPA]"
  BOUND_OPERATOR: "="
  CC50 / µM: 0.8
- COMPOUND: "Nc1ccn(C[C@@H](CO)OCP(=O)(O)O)c(=O)n1"
  BOUND_OPERATOR: ">"
  CC50 / µM: 317
- COMPOUND: "CCCCCCCCCCCCCCCCCCOCCOP(=O)(O)CO[C@H](CO)Cn1cnc2c(N)ncnc21 [ODE-(S)-HPMPA]"
  BOUND_OPERATOR: "="
  CC50 / µM: 2.1
- COMPOUND: "CC(C)CCCCCCCCCCCCCCOCCCOP(=O)(O)CO[C@H](CO)Cn1cnc2c(N)ncnc21 [15M-HDP-(S)-HPMPA]"
  BOUND_OPERATOR: "="
  CC50 / µM: 27.5

* * *

Catalogue of Mortality values
# Test system: ectromelia virus (ECTV)
# Parameters: species or system A/Ncr mice
# CONDITION_CONTEXT: mouse, in vivo, po, 5 mg/kg

- COMPOUND: "CC(C)CCCCCCCCCCCCCCOCCCOP(=O)(O)CO[C@H](CO)Cn1cnc2c(N)ncnc21 [15M-HDP-(S)-HPMPA]"
  Mortality: "0/5"
- COMPOUND: "CCCCCCCCCCCCCCCCOCCCOP(=O)(O)CO[C@H](CO)Cn1cnc2c(N)ncnc21 [HDP-(S)-HPMPA, reference compound]"
  Mortality: "1/5"
- COMPOUND: "CC(C)CCCCCCCCCCCCOCCCOP(=O)(O)CO[C@H](CO)Cn1ccc(N)nc1=O [Compound 13M-TDP-CDV, 13-methyl-tetradecyloxypropyl cidofovir]"
  Mortality: "0/5"
- COMPOUND: "CCCCCCCCCCCCCCCCOCCCOP(=O)(O)CO[C@H](CO)Cn1ccc(N)nc1=O [HDP-CDV, hexadecyloxypropyl-CDV, reference compound]"
  Mortality: "0/5"

* * *

# ASSAY_REMARKS: Neutral-red uptake assay for toxicity
# CONDITION_CONTEXT: human, HFF cells

- COMPOUND: "Nc1ccn(C[C@@H](CO)OCP(=O)(O)O)c(=O)n1"
  BOUND_OPERATOR: ">"
  CC50 at 7 days (µM): 317
- COMPOUND: "CCCCCCCCCCCCCCCCOCCCOP(=O)(O)CO[C@H](CO)Cn1ccc(N)nc1=O [HDP-CDV, hexadecyloxypropyl-CDV, reference compound]"
  BOUND_OPERATOR: "="
  CC50 at 7 days (µM): 94
